- System under test: SYTL4
- Method description: pooled miR-30 sensor sort-seq; sequence = guide strand; further: reference of the scale not given here
- Applied conditions: shRNA
Quantity name: sensor-assay potency score (higher = more potent)

IN: Please give the documented sensor-assay potency score (higher = more potent) of `AACACTGAGAATCAAATCCTTT`
OUT: -1.16

IN: Provide only the value of recorded sensor-assay potency score (higher = more potent) for `TTTGGGAGCAGACATCTTCTTC`
OUT: -0.722

IN: Find the measured sensor-assay potency score (higher = more potent) of `TTATCCAGAGAGTCTCTCCTGG` and report it.
OUT: -0.0866

IN: Return sensor-assay potency score (higher = more potent) (reported value) for this sequence: `TAATCCTTTTCTCATCTGCTTT`
OUT: -1.12

IN: Retrieve sensor-assay potency score (higher = more potent) measured for `TTCTTTAGTCGCCTAATCCTTT` and print it.
OUT: -1.13

IN: Return value of sensor-assay potency score (higher = more potent) for input `TAGTGGATTAACAGTGTCCCGC` , no commentary.
OUT: -0.966

IN: Return reported sensor-assay potency score (higher = more potent). Input sequence: `TTTCTTCAACTCTATTTCCTTG`
OUT: -0.969

IN: Input `TTCATGTACCACATCTTCTGGG` , output reported sensor-assay potency score (higher = more potent).
OUT: 0.0201

IN: Answer with the recorded sensor-assay potency score (higher = more potent) for the sequence listed here: `TTAGTGTACTCTGAAGGCCTGA`
OUT: -0.464

* * *

- System under test: EDDM3B
- Method description: pooled miR-30 sensor sort-seq; sequence = guide strand
- Applied conditions: shRNA
Each entry gets criterion not met if its sensor-assay potency score (higher = more potent) stays under -0.5, and criterion met if its sensor-assay potency score (higher = more potent) is -0.5 or above.

IN: Check if sensor-assay potency score (higher = more potent) >= -0.5 (inclusive). Item: `TTTCGGAAGCGATCCATCCAGT`
OUT: criterion not met

IN: Check if sensor-assay potency score (higher = more potent) >= -0.5 (inclusive). Item: `TTTGAGAGGATTCTGGACCCAT`
OUT: criterion met

IN: For this sequence, is measured sensor-assay potency score (higher = more potent) -0.5 or higher? `TTGGACTTAAGTAGTGCTGTTT`
OUT: criterion met

IN: Kindly determine if sensor-assay potency score (higher = more potent) recorded for `ATATGCTCGATTTTGTACCATG` is above or exactly -0.5.
OUT: criterion not met

IN: Does the sequence `TCAATGTAGTTGAAGCTCCTGC` have recorded sensor-assay potency score (higher = more potent) that is -0.5 or more?
OUT: criterion met

IN: Given the entry `TTGCTCTGTACAAGCAGTGTGC` , answer whether its sensor-assay potency score (higher = more potent) meets or surpasses -0.5.
OUT: criterion not met

* * *

Assign sensor-assay potency score (higher = more potent) to each entry below.
- System under test: GLCE
- Method description: pooled miR-30 sensor sort-seq; sequence = guide strand
- Applied conditions: shRNA
Write no unit; give the number alone.

IN: Return sensor-assay potency score (higher = more potent) for the following sequence: `TTACCTTTTGCAATCAACCTAA`
OUT: 0.22

IN: Please give measured sensor-assay potency score (higher = more potent) of the following entry: `TTTGTTAACAGATAGGCCCTGA`
OUT: 0.615

IN: Identify sensor-assay potency score (higher = more potent) associated with the sequence `TAAAAGGTCAAACTTGACCTTC`
OUT: -0.602

IN: Give the reported value of sensor-assay potency score (higher = more potent) for this record: `TAACATGTGCACATTGTGCTTA`
OUT: 0.792

IN: State its sensor-assay potency score (higher = more potent): `TTATTTTGAACATCGGCACTGG`
OUT: 0.23

IN: Write down sensor-assay potency score (higher = more potent) measured for item `TCAAACTTGACCTTCATCCAGA`
OUT: -0.0575

* * *

- System under test: MAPKAPK2
- Method description: pooled miR-30 sensor sort-seq; sequence = guide strand
- Applied conditions: shRNA
Quantity name: sensor-assay potency score (higher = more potent)
Answer with a bare number; do not write a unit.

IN: Look up sensor-assay potency score (higher = more potent) of `TTCTCTTTCTGTGAATGCCTGG` and report it.
OUT: -0.0857

IN: Fill in sensor-assay potency score (higher = more potent) for record `TTTATCTTGATCTGCTCGTAGT`
OUT: -0.523

IN: Input `TTGATCTGCAGGCCGGACTTGA` , output reported sensor-assay potency score (higher = more potent).
OUT: -0.944

IN: In one line, give reported sensor-assay potency score (higher = more potent) of the entry `TTGATTGCATGATCCAAGGGTG` .
OUT: -0.156

IN: Indicate its recorded sensor-assay potency score (higher = more potent); the sequence in question is `TTTTTATCTTGATCTGCTCGTA`
OUT: 0.0929

IN: Identify measured sensor-assay potency score (higher = more potent) associated with `TTTGTTGATTGCATGATCCAAG`
OUT: -0.653

IN: Identify the reported sensor-assay potency score (higher = more potent) for the following entry. `TCCTCTGATACTTCTGACCATT`
OUT: -1.62

* * *

- System under test: GALNT12
- Method description: pooled miR-30 sensor sort-seq; sequence = guide strand
- Applied conditions: shRNA
Returns 1 if the recorded sensor-assay potency score (higher = more potent) is greater than or equal to -0.3, and 0 otherwise.

IN: hey, is sensor-assay potency score (higher = more potent) for this one >= -0.3? `TATAGTCAAAGCAGTAGTCTGT`
OUT: 1

IN: Hello, I need to know if `TAGTCCTTTGTTCTGGAGCATC` has measured sensor-assay potency score (higher = more potent) not below -0.3. Thanks!
OUT: 0

IN: # check: sensor-assay potency score (higher = more potent) of `TCTTCTAGCAGGATATCCGGGG` is greater than or equal to -0.3
OUT: 0

IN: Could you tell me if the measured sensor-assay potency score (higher = more potent) of `TTCAGCTGCACGAACACTGTTG` reaches -0.3 or more?
OUT: 1

IN: Say whether `TTTCTTCTCTTTGCACAGCGGG` shows sensor-assay potency score (higher = more potent) of -0.3 or more.
OUT: 0

IN: # bool: sensor-assay potency score (higher = more potent) of `TCGATCACATCAATCACCGGGC` >= -0.3
OUT: 1

* * *

- System under test: NXF5
- Method description: pooled miR-30 sensor sort-seq; sequence = guide strand
- Applied conditions: shRNA
Answer each item with its documented sensor-assay potency score (higher = more potent).

IN: Please report sensor-assay potency score (higher = more potent) for the following sequence: `TTGAAGTACTTGCACAAGTTGC`
OUT: -0.882

IN: Indicate the recorded sensor-assay potency score (higher = more potent) value for this sequence: `TTTCTTTCAGTGATCTTCAGGG`
OUT: 0.16

IN: Provide one value: measured sensor-assay potency score (higher = more potent) of `TTCGTGGACATTTTGTGTGCTT`
OUT: -0.318

IN: Provide sensor-assay potency score (higher = more potent) value for the following sequence: `TACAGTTTGTTGTTGCACAAGT`
OUT: -0.398

IN: Supply sensor-assay potency score (higher = more potent) value. Item: `TACATAGGCAGACTGGTCCGAG`
OUT: -0.391

IN: Tell us which sensor-assay potency score (higher = more potent) value is on record for `TCTTTCAGTGATCTTCAGGGTG`
OUT: -0.168

* * *

- System under test: FGA
- Method description: pooled miR-30 sensor sort-seq; sequence = guide strand
- Applied conditions: shRNA
Quantity name: sensor-assay potency score (higher = more potent)
Number only, no unit.

IN: Query sensor-assay potency score (higher = more potent) for `AACATTTTTCTGCAGAAGCTGG`
OUT: -0.95

IN: Read off the recorded sensor-assay potency score (higher = more potent) for `TATTGTTCTTCTGATATTCAAA`
OUT: -1.2

IN: Specify sensor-assay potency score (higher = more potent) for `TTAGGTTGTAGAGAATCTCAAC` and stop.
OUT: -0.726

IN: Answer with the recorded sensor-assay potency score (higher = more potent) for the sequence listed here: `TCAAAGACTAATATGTCTCAGG`
OUT: -0.257

IN: Quickly give me recorded sensor-assay potency score (higher = more potent) for `TTCAGGACTTCAATTCTGCTTC`
OUT: -0.0905

IN: Please give the documented sensor-assay potency score (higher = more potent) of `TATTCTGTTTGTAAAATCTTGA`
OUT: -0.477

* * *

- System under test: HERC1
- Method description: pooled miR-30 sensor sort-seq; sequence = guide strand
- Applied conditions: shRNA
Give sensor-assay potency score (higher = more potent) for every item shown.
Kindly provide the number alone.

IN: Give sensor-assay potency score (higher = more potent) for the following sequence: `TTTCTGTAGTGAACATAGCAGT`
OUT: -0.617

IN: For the sequence `TAACAGACACATCCTTTCGATA` , report sensor-assay potency score (higher = more potent).
OUT: -0.966

IN: Answer with reported sensor-assay potency score (higher = more potent) of `TAACAGAATGGACATCTGCTGA`
OUT: -0.647

IN: In one line, give reported sensor-assay potency score (higher = more potent) of the entry `TTCTGCACTAGTCACATTGGTC` .
OUT: -0.675

IN: Given the sequence `TTATGTTCTTATAACATCTATG` , write its reported sensor-assay potency score (higher = more potent).
OUT: -0.965

IN: Give the value of sensor-assay potency score (higher = more potent) reported for the following: `TATTGTAACCCACTTCTGCGGT`
OUT: -0.596
